- measured target: thyroid peroxidase (TPO) (Sus scrofa)
- Sequence (P09933 15-926): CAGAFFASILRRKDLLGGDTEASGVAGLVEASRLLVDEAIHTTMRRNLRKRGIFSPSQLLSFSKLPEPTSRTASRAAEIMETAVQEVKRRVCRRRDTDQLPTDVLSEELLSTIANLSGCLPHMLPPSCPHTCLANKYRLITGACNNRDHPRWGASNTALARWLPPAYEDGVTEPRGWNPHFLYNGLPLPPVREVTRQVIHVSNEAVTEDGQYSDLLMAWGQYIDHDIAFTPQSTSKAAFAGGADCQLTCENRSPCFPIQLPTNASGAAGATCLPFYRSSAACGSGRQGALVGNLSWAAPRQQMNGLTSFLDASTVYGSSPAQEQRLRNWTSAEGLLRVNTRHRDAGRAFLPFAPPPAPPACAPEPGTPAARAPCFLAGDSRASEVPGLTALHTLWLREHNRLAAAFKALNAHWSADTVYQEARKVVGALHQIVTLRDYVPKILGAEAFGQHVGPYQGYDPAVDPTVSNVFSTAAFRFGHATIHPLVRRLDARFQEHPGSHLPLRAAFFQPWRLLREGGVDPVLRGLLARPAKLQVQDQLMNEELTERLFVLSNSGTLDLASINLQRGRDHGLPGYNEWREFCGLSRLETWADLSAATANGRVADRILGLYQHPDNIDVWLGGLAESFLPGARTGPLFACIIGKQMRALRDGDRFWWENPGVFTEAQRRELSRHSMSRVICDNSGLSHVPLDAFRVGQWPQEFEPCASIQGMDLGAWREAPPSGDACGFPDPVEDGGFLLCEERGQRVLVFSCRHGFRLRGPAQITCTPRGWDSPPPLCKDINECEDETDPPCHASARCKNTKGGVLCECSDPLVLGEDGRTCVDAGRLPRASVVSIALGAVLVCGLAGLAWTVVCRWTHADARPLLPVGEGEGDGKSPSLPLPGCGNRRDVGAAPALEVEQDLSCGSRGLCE
pKi: −log10 of the molar value.

{"columns": ["molecule", "measured target", "pKi"],
 "data": [
  ["C[C@@H]1O[C@@H](OC[C@H]2O[C@@H](Oc3c(-c4ccc(O)c(O)c4)oc4cc(O)cc(O)c4c3=O)[C@H](O)[C@@H](O)[C@@H]2O)[C@H](O)[C@H](O)[C@H]1O [rutin]", "thyroid peroxidase (TPO) (Sus scrofa)", 3.89]
]}

Ref: paper PMC6696198
